Assignment: determine reported combination Emax for the given molecules.
system: RF-48 (B-Cell Non-Hodgkin's Lymphoma); test: combination Emax (second highest fraction inhibited in the dose matrix, 72 h); higher = more inhibition; extreme values may be limits of the assay
Write the number on its own, no unit after it.

Query: Kindly indicate its recorded combination Emax. Item: CC1(C)CCC(CN2CCN(c3ccc(C(=O)NS(=O)(=O)c4ccc(NCC5CCOCC5)c([N+](=O)[O-])c4)c(Oc4cnc5[nH]ccc5c4)c3)CC2)=C(c2ccc(Cl)cc2)C1 [Venetoclax] + Cc1cc2ncnn2cc1Nc1ncc2c(n1)n(C1CCOCC1)c(=O)n2C [AZD7648] (first compound max 1 µM, 7x7, partner max 10 µM)
Result: 0.321

Query: Kindly indicate its recorded combination Emax. Item: Cn1cnc2c(F)c(Nc3ccc(Br)cc3Cl)c(C(=O)NOCCO)cc21 [Selumetinib] + C[C@@H]1COCCN1C2=NC(=NC(=C2)C3(CC3)[S@](=N)(=O)C)C4=C5C=CNC5=NC=C4 [AZD6738] (first compound max 10 µM, 7x7, partner max 10 µM)
Result: 0.371

Query: Kindly indicate its recorded combination Emax. Item: COc1nnc2ccc(N3CCC(c4ccc(OCCN5CCN(C)C(=O)[C@H]5C)cc4)CC3)nn12 [AZD5153] + CC1(C)CCC(CN2CCN(c3ccc(C(=O)NS(=O)(=O)c4ccc(NCC5CCOCC5)c([N+](=O)[O-])c4)c(Oc4cnc5[nH]ccc5c4)c3)CC2)=C(c2ccc(Cl)cc2)C1 [Venetoclax] (first compound max 1 µM, 7x7, partner max 1 µM)
Result: 0.53

Query: Kindly indicate its recorded combination Emax. Item: C[C@@H]1COCCN1c1cc(C2([S@](C)(=N)=O)CC2)nc(-c2ccnc3[nH]ccc23)n1 [AZD6738] + C1CC(C1)(C(=O)[O-])C(=O)[O-].N.N.[Pt+2] [Carboplatin] (first compound max 10 µM, 7x7, partner max 10 µM)
Result: 0.329

Query: Kindly indicate its recorded combination Emax. Item: CC1(C)CCC(CN2CCN(c3ccc(C(=O)NS(=O)(=O)c4ccc(NCC5CCOCC5)c([N+](=O)[O-])c4)c(Oc4cnc5[nH]ccc5c4)c3)CC2)=C(c2ccc(Cl)cc2)C1 [Venetoclax] + C[C@@H](Nc1cc(F)cc(F)c1)c1cc(C(=O)N(C)C)cc2c(=O)cc(N3CCOCC3)oc12 [AZD8186] (first compound max 1 µM, 7x7, partner max 3 µM)
Result: 0.345
